Values from patent US20230348376A1

assay: Evaluation of brain penetration in mice (blood and brain concentration at brain Cmax); format: in vivo, mouse; conditions: 1 mg/kg single oral dose, C57BL/6J mice, n=3
Respond with t for Concentration in blood (mean ± SD) at brain Cmax values of 300 nM and above, f for values below.

Dear colleague, could you confirm whether C[C@H](CN1CCC[C@](C)(O)C1)[C@H]1CC[C@H]2/C(=C/C=C3C[C@@H](O)C[C@H](O)C3)CCC[C@]12C has Concentration in blood (mean ± SD) at brain Cmax at or above 300 nM?
f

Dear colleague, could you confirm whether C[C@H](CN1CC[C@@H](CCC(F)F)C1)[C@H]1CC[C@H]2/C(=C/C=C3C[C@@H](O)C[C@H](O)C3)CCC[C@]12C has Concentration in blood (mean ± SD) at brain Cmax at or above 300 nM?
f

Dear colleague, could you confirm whether C=C1[C@H](O)CC(=C/C=C2\CCC[C@]3(C)[C@@H]([C@H](C)CCN4CCOCC4)CC[C@@H]23)C[C@H]1O has Concentration in blood (mean ± SD) at brain Cmax at or above 300 nM?
t

Dear colleague, could you confirm whether C=C1[C@H](O)CC(=C/C=C2\CCC[C@]3(C)[C@@H]([C@H](C)CN4CCC(C(C)(F)F)CC4)CC[C@@H]23)C[C@H]1O has Concentration in blood (mean ± SD) at brain Cmax at or above 300 nM?
f

Dear colleague, could you confirm whether C=C1/C(=C\C=C2/CCC[C@]3(C)[C@@H]([C@H](C)CN4CC[C@H](C(F)F)C4)CC[C@@H]23)C[C@@H](O)[C@H](C)[C@@H]1O has Concentration in blood (mean ± SD) at brain Cmax at or above 300 nM?
t

====

test: Evaluation of brain penetration in mice (blood and brain concentration at brain Cmax); format: in vivo, mouse; details: 1 mg/kg single oral dose, C57BL/6J mice, n=3
Respond with criterion met for Concentration in brain (mean ± SD) at brain Cmax values of 500 pmol/g and above, criterion not met for values below.

Solved entries (count: 5):
• C=C1[C@H](O)CC(=C/C=C2\CCC[C@]3(C)[C@@H]([C@H](C)CN4CC[C@@H](C(F)F)C4)CC[C@@H]23)C[C@H]1O [Compound B027] = criterion not met
• C[C@H](CN1CCC(O)(C(F)(F)F)CC1)[C@H]1CC[C@H]2/C(=C/C=C3C[C@@H](O)C[C@H](O)C3)CCC[C@]12C [Compound C002] = criterion not met
• C[C@H](CN1CC[C@H](CC(F)F)C1)[C@H]1CC[C@H]2/C(=C/C=C3C[C@@H](O)C[C@H](O)C3)CCC[C@]12C [Compound B042] = criterion not met
• C[C@H](CN1CCC[C@](C)(O)C1)[C@H]1CC[C@H]2/C(=C/C=C3C[C@@H](O)C[C@H](O)C3)CCC[C@]12C [Compound C039] = criterion not met
• C=C1[C@H](O)CC(=C/C=C2\CCC[C@]3(C)[C@@H]([C@H](C)CCN4CCOCC4)CC[C@@H]23)C[C@H]1O [Compound D024] = criterion met

Dear colleague, could you confirm whether C=C1[C@H](O)CC(=C/C=C2\CCC[C@]3(C)[C@@H]([C@H](C)CN4CC[C@H](CC(F)F)C4)CC[C@@H]23)C[C@H]1O [Compound B040] has Concentration in brain (mean ± SD) at brain Cmax at or above 500 pmol/g?
criterion not met

Dear colleague, could you confirm whether C=C1/C(=C\C=C2/CCC[C@]3(C)[C@@H]([C@H](C)CN4CC[C@@H](CC(F)F)C4)CC[C@@H]23)C[C@@H](O)C[C@@H]1O [Compound B037] has Concentration in brain (mean ± SD) at brain Cmax at or above 500 pmol/g?
criterion not met

====

biological target: UniProtKB P11473; experiment: Evaluation of VDR transcription activity in human osteoblasts (HOS cells), luciferase reporter; settings: Activity (EC50, VDR transcription activity), HOS cells transfected with human VDR, human RXRα and DR3 luciferase reporter; 21 hours
pEC50: −log10 of the molar value.
The molecules listed here are annotated with their pEC50.

- C=C1[C@H](O)CC(=C/C=C2\CCC[C@]3(C)[C@@H]([C@H](C)CN4CCC(O)(C(F)(F)F)CC4)CC[C@@H]23)C[C@H]1O [Compound C004]: 7.00 to 8.00
- C=C1/C(=C\C=C2/CCC[C@]3(C)[C@@H](C(C)CN4CC(F)C4)CC[C@@H]23)C[C@@H](O)C[C@@H]1O (stereo in doubt) [Compound A001]: 6.00 to 7.00
- C=C1[C@H](O)CC(=C/C=C2\CCC[C@]3(C)[C@@H]([C@H](C)CCN4CCOC[C@H]4C)CC[C@@H]23)C[C@H]1O [Compound D031]: 8.00 to 9.00
- C=C1/C(=C\C=C2/CCC[C@]3(C)[C@@H]([C@H](C)CN4CC[C@@H](OC(F)F)C4)CC[C@@H]23)C[C@@H](O)C[C@@H]1O [Compound B048]: 7.00 to 8.00

As a next step, examine the molecule that follows.
Provide measured pEC50 on UniProtKB P11473 for C=C1/C(=C\C=C2/CCC[C@]3(C)[C@@H]([C@H](C)CN4CCCC(O)(C(F)(F)F)C4)CC[C@@H]23)C[C@@H](O)[C@H](C)[C@@H]1O (single isomer, unassigned) [Compound C031b] please.
8.00 to 9.00

====

The compounds listed here are annotated with their EC50.
Biological target: UniProt:P11473
Sequence (P11473 1-427): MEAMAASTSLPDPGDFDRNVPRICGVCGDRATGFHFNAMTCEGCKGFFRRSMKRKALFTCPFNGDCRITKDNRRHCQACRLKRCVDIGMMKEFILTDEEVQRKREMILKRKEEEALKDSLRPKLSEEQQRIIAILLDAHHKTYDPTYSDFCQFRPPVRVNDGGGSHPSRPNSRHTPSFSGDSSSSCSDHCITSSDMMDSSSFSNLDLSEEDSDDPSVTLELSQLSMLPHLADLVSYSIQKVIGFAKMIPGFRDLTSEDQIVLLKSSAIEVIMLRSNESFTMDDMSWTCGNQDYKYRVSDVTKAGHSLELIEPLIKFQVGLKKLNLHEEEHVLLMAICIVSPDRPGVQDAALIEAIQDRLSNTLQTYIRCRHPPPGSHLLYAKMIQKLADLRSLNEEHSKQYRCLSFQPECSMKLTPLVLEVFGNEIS
Sequence (P19793 1-462 partner): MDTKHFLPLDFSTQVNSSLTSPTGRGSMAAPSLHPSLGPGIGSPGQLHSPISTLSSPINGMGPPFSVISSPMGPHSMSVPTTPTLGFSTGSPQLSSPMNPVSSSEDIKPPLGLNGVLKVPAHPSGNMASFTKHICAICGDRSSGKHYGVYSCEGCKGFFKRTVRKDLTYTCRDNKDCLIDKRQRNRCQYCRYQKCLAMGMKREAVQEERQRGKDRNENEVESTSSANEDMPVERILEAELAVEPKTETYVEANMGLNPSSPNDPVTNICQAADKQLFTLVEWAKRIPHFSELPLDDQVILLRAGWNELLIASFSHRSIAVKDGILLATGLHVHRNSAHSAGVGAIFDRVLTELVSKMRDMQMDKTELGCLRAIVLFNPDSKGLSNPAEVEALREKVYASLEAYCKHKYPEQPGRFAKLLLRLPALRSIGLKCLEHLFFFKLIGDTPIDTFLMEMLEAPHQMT
Assay: Evaluation of VDR transcription activity in human osteoblasts (HOS cells), luciferase reporter
Details: Activity (EC50, VDR transcription activity), HOS cells transfected with human VDR, human RXRα and DR3 luciferase reporter; 21 hours

# example entries with known answers
* C=C1[C@H](O)CC(=C/C=C2\CCC[C@]3(C)[C@@H]([C@H](C)CN4CCC(C(F)(F)F)CC4)CC[C@@H]23)C[C@H]1O | 10 to 100 nM
* C[C@@H]1CCN(C[C@@H](C)[C@H]2CC[C@H]3/C(=C/C=C4C[C@@H](O)C[C@H](O)C4)CCC[C@]23C)C1 | 1 to 10 nM
* C[C@H](CCCN1CC[C@H](F)C1)[C@H]1CC[C@H]2/C(=C/C=C3C[C@@H](O)C[C@H](O)C3)CCC[C@]12C | 10 to 100 nM
* C=C1[C@H](O)CC(=C/C=C2\CCC[C@]3(C)[C@@H]([C@H](C)CN4CC[C@H](CC)C4)CC[C@@H]23)C[C@H]1O | 1 to 10 nM

Write down EC50 measured for item C=C1/C(=C\C=C2/CCC[C@]3(C)[C@@H]([C@@H](C)CN4CCC(C(F)F)CC4)CC[C@@H]23)C[C@@H](O)[C@H](C)[C@@H]1O
1 to 10 nM

Write down EC50 measured for item C[C@H](CCN1CCOCC1(C)C)[C@H]1CC[C@H]2/C(=C/C=C3C[C@@H](O)C[C@H](O)C3)CCC[C@]12C
100 to 1000 nM
